# Lookup of reported protein stability index keyed by entry
Test system: Saccharomyces cerevisiae;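 note: PSI is a weighted mean of sequencing reads over stability bins, variants kept only with over 10 reads, mCherry proximal and sfGFP distal, peptide attached via GGGS linker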
Assay: protein stability index of tFT-peptide fusion (C-terminal peptide) (PSI (0-1 scale)); higher = more stable (slower turnover)
Conditions: genetic background: doa10 deletion; temperature: 30 C

[
  {
    "input sequence": "FLFCMIFIFRCF",
    "protein stability index": 0.203
  },
  {
    "input sequence": "FCLGFRFFVFFL",
    "protein stability index": 0.208
  },
  {
    "input sequence": "VYFRMGFMRVCV",
    "protein stability index": 0.32
  },
  {
    "input sequence": "FLIVLLVIFFGF",
    "protein stability index": 0.275
  },
  {
    "input sequence": "IHRSPLTLPLLV",
    "protein stability index": 0.406
  },
  {
    "input sequence": "VALSILCVFFFF",
    "protein stability index": 0.24
  },
  {
    "input sequence": "GLVWSKCFFIVG",
    "protein stability index": 0.268
  },
  {
    "input sequence": "CRLFFVFVFFWW",
    "protein stability index": 0.311
  },
  {
    "input sequence": "IDLISRVTVVAR",
    "protein stability index": 0.224
  },
  {
    "input sequence": "GGSIKRFVILVL",
    "protein stability index": 0.259
  },
  {
    "input sequence": "VSRVHIRIEGNH",
    "protein stability index": 0.635
  },
  {
    "input sequence": "GELDVRKLLKYF",
    "protein stability index": 0.154
  },
  {
    "input sequence": "FGLMCFIFYVLV",
    "protein stability index": 0.223
  },
  {
    "input sequence": "VNILFCLFFLLV",
    "protein stability index": 0.392
  },
  {
    "input sequence": "AFTFLLCWLFGV",
    "protein stability index": 0.453
  },
  {
    "input sequence": "VLLSFVFCGWVR",
    "protein stability index": 0.326
  },
  {
    "input sequence": "VGVIGWGGLGVG",
    "protein stability index": 0.493
  },
  {
    "input sequence": "LGVCLFFVRCWS",
    "protein stability index": 0.159
  },
  {
    "input sequence": "FSYLSFLPSLAA",
    "protein stability index": 0.442
  },
  {
    "input sequence": "VRNKFSYVLRLN",
    "protein stability index": 0.0804
  },
  {
    "input sequence": "GLYLVFMGFVPC",
    "protein stability index": 0.317
  },
  {
    "input sequence": "GITSFFSWSFLS",
    "protein stability index": 0.169
  },
  {
    "input sequence": "GRVAIFTLLWRI",
    "protein stability index": 0.469
  },
  {
    "input sequence": "LWGVGFLFVLVG",
    "protein stability index": 0.105
  },
  {
    "input sequence": "VKGYISLLLVLI",
    "protein stability index": 0.289
  },
  {
    "input sequence": "SCFRFFFLFLFF",
    "protein stability index": 0.432
  },
  {
    "input sequence": "SYVFEFIVSVVF",
    "protein stability index": 0.23
  },
  {
    "input sequence": "ALSRFFSVFLLV",
    "protein stability index": 0.26
  },
  {
    "input sequence": "FFSFFLSFRLWF",
    "protein stability index": 0.596
  },
  {
    "input sequence": "VVLVLLCIGRLL",
    "protein stability index": 0.27
  },
  {
    "input sequence": "CFCVSVHVWLLM",
    "protein stability index": 0.0493
  },
  {
    "input sequence": "FFCLFCLSCWVL",
    "protein stability index": 0.323
  },
  {
    "input sequence": "LSVSEILAVKCG",
    "protein stability index": 0.363
  },
  {
    "input sequence": "KKNITRLKNKMT",
    "protein stability index": 0.212
  },
  {
    "input sequence": "RICCLFILLFCL",
    "protein stability index": 0.422
  },
  {
    "input sequence": "SYMWLVEVLLFI",
    "protein stability index": 0.173
  },
  {
    "input sequence": "FFVFVVFFCFGL",
    "protein stability index": 0.281
  },
  {
    "input sequence": "PPSLFLLLKVFF",
    "protein stability index": 0.268
  },
  {
    "input sequence": "RPAVVPPPFAPL",
    "protein stability index": 0.708
  },
  {
    "input sequence": "VFAFVVFLHFEC",
    "protein stability index": 0.184
  },
  {
    "input sequence": "LFFGLCFVFFGF",
    "protein stability index": 0.407
  },
  {
    "input sequence": "FLLGWFLFFVCS",
    "protein stability index": 0.289
  },
  {
    "input sequence": "VAFVVALSLIFL",
    "protein stability index": 0.281
  },
  {
    "input sequence": "LLVFFLAIPSLV",
    "protein stability index": 0.195
  },
  {
    "input sequence": "SLFPHIFFFFFA",
    "protein stability index": 0.343
  },
  {
    "input sequence": "IFIVLDFRCVSS",
    "protein stability index": 0.243
  },
  {
    "input sequence": "CVLLVFLHLCLA",
    "protein stability index": 0.256
  },
  {
    "input sequence": "FPPHFLPLVFLS",
    "protein stability index": 0.0786
  },
  {
    "input sequence": "ESSRNILLWRTI",
    "protein stability index": 0.247
  },
  {
    "input sequence": "VYFRYWLLVVVF",
    "protein stability index": 0.117
  },
  {
    "input sequence": "GGIRLRVRFFVI",
    "protein stability index": 0.158
  },
  {
    "input sequence": "CWSSVGLSVCGC",
    "protein stability index": 0.597
  },
  {
    "input sequence": "VGDVVWFGVGAG",
    "protein stability index": 0.662
  },
  {
    "input sequence": "YVCVVSVLLGLL",
    "protein stability index": 0.194
  },
  {
    "input sequence": "VSIVLHSVPCGG",
    "protein stability index": 0.361
  },
  {
    "input sequence": "LPVPVLGFPPLA",
    "protein stability index": 0.659
  },
  {
    "input sequence": "PVGLMKRFRLFI",
    "protein stability index": 0.332
  },
  {
    "input sequence": "YHRKAILMCTFS",
    "protein stability index": 0.307
  },
  {
    "input sequence": "MRGPAWVCVLYS",
    "protein stability index": 0.284
  },
  {
    "input sequence": "NLSYFFFSVLFF",
    "protein stability index": 0.62
  },
  {
    "input sequence": "LIFRLCVCGVFW",
    "protein stability index": 0.278
  },
  {
    "input sequence": "LFWFRGTIVTPR",
    "protein stability index": 0.635
  },
  {
    "input sequence": "LFMLHFLAVLRY",
    "protein stability index": 0.337
  },
  {
    "input sequence": "PDPIFGEWVYMV",
    "protein stability index": 0.249
  },
  {
    "input sequence": "FSVTTLTILCLR",
    "protein stability index": 0.49
  },
  {
    "input sequence": "WGCTGGRGRLVC",
    "protein stability index": 0.254
  },
  {
    "input sequence": "CLQYRACLILLT",
    "protein stability index": 0.456
  },
  {
    "input sequence": "AIMFLVLGYVFF",
    "protein stability index": 0.255
  },
  {
    "input sequence": "SRSFFRRLLFCF",
    "protein stability index": 0.335
  },
  {
    "input sequence": "DHSWGGLLICTC",
    "protein stability index": 0.33
  },
  {
    "input sequence": "RKNIKISKAGIG",
    "protein stability index": 0.31
  },
  {
    "input sequence": "PFFFIFVLPFVF",
    "protein stability index": 0.318
  },
  {
    "input sequence": "RYCVVDISAFCD",
    "protein stability index": 0.37
  },
  {
    "input sequence": "ERRWVLVAWRFK",
    "protein stability index": 0.416
  },
  {
    "input sequence": "GGSKIGFTVGGG",
    "protein stability index": 0.642
  },
  {
    "input sequence": "VFVMVLCALFYF",
    "protein stability index": 0.244
  },
  {
    "input sequence": "LMVLISVMFSLG",
    "protein stability index": 0.113
  },
  {
    "input sequence": "FCTVYFVCVWEM",
    "protein stability index": 0.177
  },
  {
    "input sequence": "FLLCGVFFFFFV",
    "protein stability index": 0.344
  },
  {
    "input sequence": "SLSSSFQFSSPS",
    "protein stability index": 0.667
  },
  {
    "input sequence": "IFPSRSLLAASA",
    "protein stability index": 0.317
  },
  {
    "input sequence": "FPPCSFLGFLVF",
    "protein stability index": 0.556
  }
]
